# test: Cytotoxicity against human HuH5.2 cells assessed as reduction in cell viability after 72 hrs by MTS assay
# Format: cell-based, Huh-5-2
Each entry below lists one item and its recorded CC50 at 72 h value.
attributeMeasured: CC50 at 72 h

compound: O=S(=O)(NCCCCN1CCN(CCCCNS(=O)(=O)c2ccc(Cl)cc2)CC1)c1ccc(Cl)cc1
attributeMeasured: CC50 at 72 h
testResult: > 173 µM

compound: Cc1ccc2nc(N3C(=O)C(O)=C(C(=O)c4cc5ccccc5o4)C3c3cccc(O)c3)sc2c1 (stereo not given)
attributeMeasured: CC50 at 72 h
testResult: > 104 µM

compound: COc1ccc(S(=O)(=O)NCCN2CCN(CCNS(=O)(=O)c3ccc(OC)cc3)CC2)cc1
attributeMeasured: CC50 at 72 h
testResult: > 97.5 µM

compound: CC(C)(C)c1ccc(S(=O)(=O)NCCCN2CCN(CCNS(=O)(=O)c3ccc(C(C)(C)C)cc3)CC2)cc1
attributeMeasured: CC50 at 72 h
testResult: 5.21 µM

compound: O=S(=O)(NCCCN1CCN(CCCNS(=O)(=O)c2ccccc2)CC1)c1ccccc1
attributeMeasured: CC50 at 72 h
testResult: > 104 µM

###

# test: Cytotoxicity against human HuH5.2 cells assessed as reduction in cell viability after 72 hrs by MTS assay
# Type: cell-based, Huh-5-2
attributeMeasured: CC50 at 72 h (µM)

givenSmiles: Cc1ccc(S(=O)(=O)NCCCN2CCN(CCCNS(=O)(=O)c3ccc(C(C)(C)C)cc3)CC2)cc1
valuePrefix: =
testResult: 14.6
--
givenSmiles: O=C1NC(=O)/C(=C\c2ccc(-c3ccc(Cl)cc3Cl)o2)S1
valuePrefix: =
testResult: 33.4
--
givenSmiles: O=S(=O)(NCCN1CCN(CCNS(=O)(=O)c2ccc(Cl)cc2)CC1)c1ccc(Cl)cc1
valuePrefix: >
testResult: 95.9
--
givenSmiles: COc1ccc(-c2ccc(/C=N/NC(=O)COc3cc(C)ccc3C)o2)cc1Cl
valuePrefix: >
testResult: 121
--
givenSmiles: COc1ccc(S(=O)(=O)NCCC(=O)N2CCN(C(=O)CCNS(=O)(=O)c3ccc(OC)c(OC)c3)CC2)cc1OC
valuePrefix: >
testResult: 159
--
givenSmiles: O=C(CCNS(=O)(=O)c1ccc2ccccc2c1)N1CCN(C(=O)CCNS(=O)(=O)c2ccc3ccccc3c2)CC1
valuePrefix: =
testResult: 40.8
